Tested on: U-2 OS
method: cell painting activity score (Mahalanobis distance from DMSO wells); higher = stronger morphological phenotype
test_context: 1.25 µM; 24 h
Decide by cell painting activity score: equal to or exceeding 6 means 1, less means 0.

Before answering, review these 8 worked examples.
{"compound": "CCCC[S@](=N)(=O)CC[C@H](N)C(=O)O", "category_label": 0}
{"compound": "CC[C@@H]1/C=C/C=C/C[C@H](C)[C@@H](O)[C@](C)(O)C(=O)[C@H](C)[C@@H](O)[C@H](C)C(=O)[C@H](C)[C@@H](O)[C@H](C)/C=C/C(=O)O[C@H]2[C@@H](C)[C@@H](CC1)O[C@@]1(CC[C@@H](C)[C@@H](C[C@H](C)O)O1)[C@@H]2C", "category_label": 1}
{"compound": "O=C(c1ccc(/C=C/c2n[nH]c3ccccc23)cc1)N1CCNCC1", "category_label": 1}
{"compound": "CCN(CC)Cc1ccc2cc(COC(=O)Nc3ccc(C(=O)NO)cc3)ccc2c1.Cl", "category_label": 1}
{"compound": "ClC1=CC=C(C2=CSC(N/N=C3CCCC/3)=N2)C=C1", "category_label": 0}
{"compound": "CCC(=O)CCCCC[C@@H]1NC(=O)[C@H]2CCCCN2C(=O)[C@H]([C@@H](C)CC)NC(=O)[C@H](Cc2cn(OC)c3ccccc23)NC1=O", "category_label": 1}
{"compound": "C[C@]12O[C@H](C[C@]1(O)CO)n1c3ccccc3c3c4c(c5c6ccccc6n2c5c31)CNC4=O", "category_label": 1}
{"compound": "CNC(=O)c1cc(Oc2ccc(NC(=O)Nc3ccc(Cl)c(C(F)(F)F)c3)cc2)ccn1", "category_label": 1}

Ask: I'd appreciate it if you could say whether COc1ccc(N2C(=O)CC(Sc3nnc(-c4ccccc4)o3)C2=O)cc1 (stereo not drawn) has cell painting activity score at least equal to 6.
Reply: 0

Ask: Is the recorded value of cell painting activity score equal to or greater than 6 for this compound? O=C(O)C1(C(=O)O)CCC1.[NH2-].[NH2-].[Pt+2]
Reply: 0

Ask: Hi team, for CCC(=O)N1CCN(c2ccc(-n3c(=O)ccc4cnc5ccc(-c6cnc7ccccc7c6)cc5c43)cc2C(F)(F)F)CC1 , is the recorded cell painting activity score at or above 6?
Reply: 1

Ask: Check if cell painting activity score >= 6 (inclusive). Item: c1ccc(Nc2nc(-c3ccccc3)ns2)cc1
Reply: 0

Ask: For this compound, is measured cell painting activity score 6 or higher? CNC(=O)Nc1ccc2c(c1)CC[C@@]21OC(=O)N(CC(=O)N(Cc2ccc(F)cc2)[C@@H](C)C(F)(F)F)C1=O
Reply: 1

Ask: Test whether the compound CC(C)(C)c1cc(O)ccc1O records cell painting activity score of 6 or higher.
Reply: 0

Ask: Please indicate if the recorded cell painting activity score for CN1C(=O)[C@]23CC4=CC=C[C@H](O)[C@H]4N2C(=O)[C@@]1(CO)SS3 meets or exceeds 6.
Reply: 1

Ask: Is cell painting activity score for NC1CS(=O)(=O)c2ccccc21 (stereo not drawn) at or above 6?
Reply: 0

Ask: Record CC[C@H]1CN2CCc3cc(OC)c(OC)cc3[C@@H]2C[C@@H]1C[C@H]1NCCc2cc(OC)c(OC)cc21.Cl.Cl.O ; criterion: cell painting activity score no lower than 6. Met?
Reply: 1

Ask: Could you verify whether the entry O=C(CSC1CC(=O)N(c2cccc(Cl)c2)C1=O)Nc1ccc(Br)cc1 (stereo not drawn) shows cell painting activity score of no less than 6?
Reply: 0

Ask: Is cell painting activity score at least 6? Consider CCCCCC[C@H]1C(=O)O[C@H](C)[C@H](NC(=O)c2cccc(NC=O)c2O)C(=O)O[C@@H](C)[C@@H]1OC(=O)CC(C)C
Reply: 1

Ask: Would you say COc1ccc(N(C(=O)CCl)C(C(=O)NCCc2ccccc2)c2cccs2)cc1Cl (stereo not drawn) shows cell painting activity score at minimum 6?
Reply: 1

Ask: Does the compound Cc1[nH]c2ccccc2c1CCNCc1ccc(/C=C/C(=O)NO)cc1 have recorded cell painting activity score that is 6 or more?
Reply: 1

Ask: Is cell painting activity score at least 6? Consider Cc1cc(NC(=O)c2cccc(NC(=O)/C=C/CN(C)C)c2)ccc1Nc1nccc(-c2cccnc2)n1
Reply: 1

Ask: Tell me whether cell painting activity score is at least 6 here: COC[C@H]1OC(=O)c2coc3c2[C@@]1(C)C1=C(C3=O)[C@@H]2CCC(=O)[C@@]2(C)C[C@H]1OC(C)=O
Reply: 1

Ask: Answer whether cell painting activity score of Oc1cccc(O)c1O is greater than or equal to 6.
Reply: 0

Ask: Given the entry C=C1C(=O)O[C@H](CCC)[C@H]1C(=O)O , answer whether its cell painting activity score meets or surpasses 6.
Reply: 0

Ask: Decide: cell painting activity score of O=S1(=O)C=C(Sc2nn(-c3ccccc3)c(=S)s2)c2ccccc21 >= 6?
Reply: 1

Ask: Assess whether reported cell painting activity score for O=C1C=C(Cl)C(=O)c2ccccc21 sits at 6 or higher.
Reply: 1
